Test system: S. aureus (ATCC BAA-41)
Type: cell-based, Staphylococcus aureus
Conditions: S. aureus ATCC BAA-41; antibiotic alone, 99.9% killing, triplicate
Listed below: Antibiotics MBC Alone values for each entry.
The reply should contain only the number, in µM.

Here are 4 compounds together with their reported answers.
>>> assay_result("CO[C@H]1/C=C/O[C@@]2(C)Oc3c(C)c(O)c4c(O)c(c(/C=N/N5CCN(C)CC5)c(O)c4c3C2=O)NC(=O)/C(C)=C\\C=C\\[C@H](C)[C@H](O)[C@@H](C)[C@@H](O)[C@@H](C)[C@H](OC(C)=O)[C@@H]1C")
0.005
>>> assay_result("CC1(C)S[C@@H]2[C@H](NC(=O)[C@H](N)c3ccccc3)C(=O)N2[C@H]1C(=O)O")
40
>>> assay_result("O=C(N[C@H](CO)[C@H](O)c1ccc([N+](=O)[O-])cc1)C(Cl)Cl")
30
>>> assay_result("C[C@H]1COc2c(N3CCN(C)CC3)c(F)cc3c(=O)c(C(=O)O)cn1c23")
10

Shifting focus to the compound that follows.
Request: Kindly state the measured Antibiotics MBC Alone obtained for CC[C@H]1OC(=O)[C@H](C)[C@@H](O[C@H]2C[C@@](C)(OC)[C@@H](O)[C@H](C)O2)[C@H](C)[C@@H](O[C@@H]2O[C@H](C)C[C@H](N(C)C)[C@H]2O)[C@](C)(O)C[C@@H](C)C(=O)[C@H](C)[C@@H](O)[C@]1(C)O with S. aureus (ATCC BAA-41).
Response: 400

----------
Assay: in vitro
Assay type: in vitro ADME
Settings: mouse, serum
Method: The stability assay of UP-5 relied on a previously reported stability test procedure employing mouse plasma or mouse serum (PAA Laboratories, Pasching, Austria). Briefly, a stock solution of the peptide was prepared in 5% aqueous DMSO. […]
Square brackets hold non-standard residues; d marks the D form. Peptide text beside a SMILES is read from it. Bip = N[C@@H](Cc1ccc(-c2ccccc2)cc1)C(=O)O
measurement_kind: half-life at 75 µg/mL

Request: Give its half-life at 75 µg/mL value. Item: N=C(N)NCCC[C@H](NC(=O)[C@H](Cc1ccc(-c2ccccc2)cc1)NC(=O)[C@H](CCCNC(=N)N)NC(=O)[C@H](Cc1ccc(-c2ccccc2)cc1)NC(=O)[C@@H](N)CCCNC(=N)N)C(=O)O [UP-5] (H-R[Bip]R[Bip]R-OH)
Response: < 15 min

----------
Test system: Staphylococcus aureus (ATCC 29213)
Format: cell-based
Details: S. aureus ATCC 29213; antibiotic alone, microbroth dilution, triplicate
Listed below: Antibiotics MIC Alone values for each entry.
The reply should contain only the number, in µM.

Here are 2 molecules together with their reported answers.
>>> assay_result("CO[C@H]1/C=C/O[C@@]2(C)Oc3c(C)c(O)c4c(O)c(c(/C=N/N5CCN(C)CC5)c(O)c4c3C2=O)NC(=O)/C(C)=C\\C=C\\[C@H](C)[C@H](O)[C@@H](C)[C@@H](O)[C@@H](C)[C@H](OC(C)=O)[C@@H]1C")
0.025
>>> assay_result("CC1(C)S[C@@H]2[C@H](NC(=O)[C@H](N)c3ccccc3)C(=O)N2[C@H]1C(=O)O")
2.5

Request: Give its Antibiotics MIC Alone value. Item: O=C(N[C@H](CO)[C@H](O)c1ccc([N+](=O)[O-])cc1)C(Cl)Cl
Response: 20

Request: Give its Antibiotics MIC Alone value. Item: CC[C@H]1OC(=O)[C@H](C)[C@@H](O[C@H]2C[C@@](C)(OC)[C@@H](O)[C@H](C)O2)[C@H](C)[C@@H](O[C@@H]2O[C@H](C)C[C@H](N(C)C)[C@H]2O)[C@](C)(O)C[C@@H](C)C(=O)[C@H](C)[C@@H](O)[C@]1(C)O
Response: 0.5

Request: Give its Antibiotics MIC Alone value. Item: C[C@H]1COc2c(N3CCN(C)CC3)c(F)cc3c(=O)c(C(=O)O)cn1c23
Response: 0.5

----------
Test system: P. aeruginosa (ATCC BAA-2114)
Format: cell-based, Pseudomonas aeruginosa
Settings: P. auroginosa ATCC BAA-2114; antibiotic alone, microbroth dilution, triplicate
measurement_kind: Antibiotics MIC Alone (µM)
The reply should contain only the number, in µM.

Here are 2 compounds together with their reported answers.
>>> assay_result("C[C@H]1COc2c(N3CCN(C)CC3)c(F)cc3c(=O)c(C(=O)O)cn1c23")
12
>>> assay_result("O=C(N[C@H](CO)[C@H](O)c1ccc([N+](=O)[O-])cc1)C(Cl)Cl")
200

Shifting focus to the compound that follows.
Request: Give its Antibiotics MIC Alone value. Item: CO[C@H]1/C=C/O[C@@]2(C)Oc3c(C)c(O)c4c(O)c(c(/C=N/N5CCN(C)CC5)c(O)c4c3C2=O)NC(=O)/C(C)=C\C=C\[C@H](C)[C@H](O)[C@@H](C)[C@@H](O)[C@@H](C)[C@H](OC(C)=O)[C@@H]1C
Response: 50

----------
Test: in vitro
Format: in vitro ADME
Conditions: mouse, plasma
Square brackets hold non-standard residues; d marks the D form. Peptide text beside a SMILES is read from it. Bip = N[C@@H](Cc1ccc(-c2ccccc2)cc1)C(=O)O
measurement_kind: metabolised at 1 h, 75 µg/mL (%)
The reply should contain only the number, in %.

Request: Give its metabolised at 1 h, 75 µg/mL value. Item: N=C(N)NCCC[C@H](NC(=O)[C@H](Cc1ccc(-c2ccccc2)cc1)NC(=O)[C@H](CCCNC(=N)N)NC(=O)[C@H](Cc1ccc(-c2ccccc2)cc1)NC(=O)[C@@H](N)CCCNC(=N)N)C(=O)O [UP-5] (H-R[Bip]R[Bip]R-OH)
Response: 27

----------
Test: in vitro
Format: in vitro ADME
Details: mouse, plasma
Square brackets hold non-standard residues; d marks the D form. Peptide text beside a SMILES is read from it. Bip = N[C@@H](Cc1ccc(-c2ccccc2)cc1)C(=O)O
measurement_kind: half-life at 75 µg/mL
Answer with the figure and its unit, nothing else.

Request: Give its half-life at 75 µg/mL value. Item: N=C(N)NCCC[C@H](NC(=O)[C@H](Cc1ccc(-c2ccccc2)cc1)NC(=O)[C@H](CCCNC(=N)N)NC(=O)[C@H](Cc1ccc(-c2ccccc2)cc1)NC(=O)[C@@H](N)CCCNC(=N)N)C(=O)O [UP-5] (H-R[Bip]R[Bip]R-OH)
Response: 2.88 h

----------
Test: in vitro
Assay type: in vitro ADME
Settings: mouse, serum
Square brackets hold non-standard residues; d marks the D form. Peptide text beside a SMILES is read from it. Bip = N[C@@H](Cc1ccc(-c2ccccc2)cc1)C(=O)O
measurement_kind: metabolised at 0.25 h, 75 µg/mL

Request: Give its metabolised at 0.25 h, 75 µg/mL value. Item: N=C(N)NCCC[C@H](NC(=O)[C@H](Cc1ccc(-c2ccccc2)cc1)NC(=O)[C@H](CCCNC(=N)N)NC(=O)[C@H](Cc1ccc(-c2ccccc2)cc1)NC(=O)[C@@H](N)CCCNC(=N)N)C(=O)O [UP-5] (H-R[Bip]R[Bip]R-OH)
Response: > 80%
